Just for reference, paper PMC4312132 is where these values come from.

test target: F16′S ELIC (Dickeya chrysanthemi, UniProt P0C7B7, F246S)
assay info: GABA activation of F16′S ELIC, two-electrode voltage clamp in Xenopus oocytes
measurement label: EC50 (mM)
Please state the figure in mM; there is no need to write the unit.

stdin: Dear colleague, I am looking for the recorded EC50 of the following compound: NCCCC(=O)O [GABA, γ-aminobutyric acid]
stdout: 7.1

* * *

test target: F16′Y ELIC (Dickeya chrysanthemi, UniProt P0C7B7, F246Y)
Construct: expressed in transfected cells; host or cells: Xenopus laevis oocytes (cRNA injection)
assay info: GABA activation of F16′Y ELIC, two-electrode voltage clamp in Xenopus oocytes
Format: cell-based, Erwinia chrysanthemii
measurement label: EC50 (mM)
Please state the figure in mM; there is no need to write the unit.

stdin: Dear colleague, I am looking for the recorded EC50 of the following molecule: NCCCC(=O)O
stdout: 7.5

* * *

test target: F16′A ELIC (Dickeya chrysanthemi, UniProt P0C7B7, F246A)
Construct: expressed in transfected cells; host or cells: Xenopus laevis oocytes (cRNA injection)
assay info: Inhibition of GABA-elicited currents of F16′A ELIC in Xenopus oocytes
Type: cell-based, Erwinia chrysanthemii
conditions used: pIC50, F16′A ELIC; inhibition measured at the GABA EC50
measurement label: IC50
Dear colleague, please send the value followed by its unit.

stdin: Dear colleague, I am looking for the recorded IC50 of the following molecule: C=C(C)[C@@H]1[C@H]2OC(=O)[C@@H]1[C@]1(O)C[C@H]3O[C@]34C(=O)O[C@H]2[C@]14C
stdout: 16.6 µM

* * *

test target: T6′S/F16′S ELIC (Dickeya chrysanthemi, UniProt P0C7B7, F246S/T236S)
Construct: expressed in transfected cells; host or cells: Xenopus laevis oocytes injected with cRNA transcribed from pGEMHE
Sequence (P0C7B7 1-321 T236S/F246S): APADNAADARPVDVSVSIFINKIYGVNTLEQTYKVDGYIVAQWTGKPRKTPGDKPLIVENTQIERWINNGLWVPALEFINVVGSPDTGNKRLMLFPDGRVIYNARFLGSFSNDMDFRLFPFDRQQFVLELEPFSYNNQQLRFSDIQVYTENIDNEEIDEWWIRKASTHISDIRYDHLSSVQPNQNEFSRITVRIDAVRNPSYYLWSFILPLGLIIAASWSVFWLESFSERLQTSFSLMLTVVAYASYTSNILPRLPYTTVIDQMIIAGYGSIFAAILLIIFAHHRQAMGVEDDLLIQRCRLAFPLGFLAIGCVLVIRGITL
assay info: Inhibition of GABA-elicited currents of T6′S/F16′S ELIC in Xenopus oocytes
Format: cell-based, Erwinia chrysanthemii
conditions used: IC50, T6′S/F16′S ELIC; inhibition measured at the GABA EC50
measurement label: pIC50
Friendly reminder that pIC50 comes from taking -log10 of the concentration in mol/L.

stdin: Dear colleague, I am looking for the recorded pIC50 of the following molecule: C=C(C)[C@@H]1[C@H]2OC(=O)[C@@H]1[C@]1(O)C[C@H]3O[C@]34C(=O)O[C@H]2[C@]14C
stdout: 4.36

* * *

test target: F16′D ELIC (Dickeya chrysanthemi, UniProt P0C7B7, F246D)
assay info: GABA activation of F16′D ELIC, two-electrode voltage clamp in Xenopus oocytes
measurement label: pEC50
Friendly reminder that pEC50 comes from taking -log10 of the concentration in mol/L.

stdin: Dear colleague, I am looking for the recorded pEC50 of the following molecule: NCCCC(=O)O
stdout: 2.68
